Entries and their pIC50
- Assay target: CCK Receptor (Pancreas) (Rattus norvegicus)
- Construct: The whole pancreas was dissected free of fat tissue and was homogenized; from tissue; host or cells: rat whole pancreas, homogenate membranes
- Sequence (P30551 1-444): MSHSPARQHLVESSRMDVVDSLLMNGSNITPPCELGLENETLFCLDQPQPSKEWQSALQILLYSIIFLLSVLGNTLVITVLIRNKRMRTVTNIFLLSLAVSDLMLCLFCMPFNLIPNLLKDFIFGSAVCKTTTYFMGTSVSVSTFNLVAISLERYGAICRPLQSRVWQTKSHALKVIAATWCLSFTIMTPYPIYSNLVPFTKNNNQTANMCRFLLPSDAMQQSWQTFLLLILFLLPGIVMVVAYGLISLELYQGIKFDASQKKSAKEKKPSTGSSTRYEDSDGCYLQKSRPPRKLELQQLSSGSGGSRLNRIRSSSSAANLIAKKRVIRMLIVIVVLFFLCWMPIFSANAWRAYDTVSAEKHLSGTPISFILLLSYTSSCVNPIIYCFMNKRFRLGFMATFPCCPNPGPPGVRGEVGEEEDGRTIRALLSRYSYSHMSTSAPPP
- Procedure details: biochemical
- Assay type: binding, Male Sprague-Dawley rats
- Test parameters: rat pancreas membranes, 125I-CCK-8 50 pM, 25° C., 2 hours; read-out: IC50, 125I-CCK Pancreas
For clarity, pIC50 is expressed as the negative log10 of concentration in mol/L.

>  <Molecule>
CN1C(=O)[C@H](NC(=O)Nc2cccc(/C=C/C(=O)O)c2)N=C(c2ccccc2)c2ccccc21

>  <Assay target>
CCK Receptor (Pancreas) (Rattus norvegicus)

>  <pIC50>
7.92

$$$$
>  <Molecule>
CC(C)N1C(=O)C(NC(=O)Nc2cccc(-c3nnn[nH]3)c2)N=C(c2ccccc2)c2ccccc21 (stereo not shown)

>  <Assay target>
CCK Receptor (Pancreas) (Rattus norvegicus)

>  <pIC50>
6.70

$$$$
>  <Molecule>
COc1ccc(NC(=O)N[C@@H]2N=C(c3ccccc3)c3ccccc3N(C)C2=O)cn1

>  <Assay target>
CCK Receptor (Pancreas) (Rattus norvegicus)

>  <pIC50>
5.70

$$$$
>  <Molecule>
CN1C(=O)[C@H](NC(=O)Nc2cccc(-c3noc(=O)[nH]3)c2)N=C(c2ccccc2)c2ccccc21

>  <Assay target>
CCK Receptor (Pancreas) (Rattus norvegicus)

>  <pIC50>
5.96

$$$$
>  <Molecule>
CC(=O)c1cccc(NC(=O)N[C@@H]2N=C(c3ccccc3)c3ccccc3N(C)C2=O)c1

>  <Assay target>
CCK Receptor (Pancreas) (Rattus norvegicus)

>  <pIC50>
5.92

$$$$

Field pIC50 (entry `CC(C)CN1C(=O)[C@H](NC(=O)Nc2cccc(-c3nnn[nH]3)c2)N=C(c2ccccc2)c2ccccc21` ) reads 5.85

---

- Assay target: CCK Receptor (Pancreas) (Rattus norvegicus, UniProt P30551)
- Construct: The whole pancreas was dissected free of fat tissue and was homogenized; from tissue; host or cells: rat whole pancreas, homogenate membranes
- Procedure details: biochemical
- Format: binding, Male Sprague-Dawley rats
- Test parameters: rat pancreas membranes, 125I-CCK-8 50 pM, 25° C., 2 hours; read-out: IC50, 125I-CCK Pancreas
- Protocol: 1. CCK Receptor Binding (Pancreas) CCK-8 sulphated was radiolabelled with ^125 I-Bolton Hunter reagent (2000 Ci/mmole). Receptor binding was performed according to Chang and Lotti (Proc. Natl. Acad. Sci. 83, 4923-4926, 1986) with minor modifications. Male Sprague-Dawley rats (150-200 g) were sacrificed by decapitation. […] The radioactivity on the filters was counted with a LKB gamma counter. […]
# key: entry, value: log10(IC50)
Values are log10 of IC50 in µM.

// known answers, use as guide
>  <Compound>
CC(=O)NC(=O)c1cccc(NC(=O)N[C@@H]2N=C(c3ccccc3)c3ccccc3N(C)C2=O)c1

>  <log10(IC50)>
0.58

$$$$
>  <Compound>
CCCN1C(=O)[C@H](NC(=O)Nc2cccc(-c3nnn[nH]3)c2)N=C(c2ccccc2)c2ccccc21

>  <log10(IC50)>
0.04

$$$$
>  <Compound>
CN1C(=O)[C@H](NC(=O)Nc2cccc(C3=NOS(=O)N3)c2)N=C(c2ccccc2)c2ccccc21 (stereo partly shown)

>  <log10(IC50)>
0.18

$$$$
>  <Compound>
CN1C(=O)[C@H](NC(=O)Nc2cccc(C#N)c2)N=C(c2ccccc2)c2ccccc21

>  <log10(IC50)>
0.49

$$$$
>  <Compound>
CN1C(=O)[C@H](NC(=O)Nc2cccc(B(O)O)c2)N=C(c2ccccc2)c2ccccc21

>  <log10(IC50)>
-0.38

$$$$

Item: `CC(C)S(=O)(=O)NC(=O)c1cccc(NC(=O)N[C@@H]2N=C(c3ccccc3)c3ccccc3N(C)C2=O)c1` | System: CCK Receptor (Pancreas) (Rattus norvegicus, UniProt P30551) | log10(IC50): 0.38

Observed log10(IC50) on CCK Receptor (Pancreas) (Rattus norvegicus, UniProt P30551), entry `CN1C(=O)[C@H](NC(=O)Nc2cccc(-c3nnn[nH]3)c2)N=C(c2ccccc2)c2ccccc21` , equals -0.40

Short answer on CCK Receptor (Pancreas) (Rattus norvegicus, UniProt P30551) for `CN1C(=O)[C@H](NC(=O)Nc2cccc(S(N)(=O)=O)c2)N=C(c2ccccc2)c2ccccc21` , log10(IC50): 0.64
